Assay: chemical genetic growth profiling, strain panel (AID 1159580);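 also: tested at 20 µM; growth read once vehicle control cultures reached saturation at 30 °C; 1 = growth at the plate median or of vehicle wells; lower values mean less growth of the strain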
Conditions: S. cerevisiae deletion strains, growth OD, locus YER110C, stronger effect = lower value
Hit rate of the full screen: of about 5,500 compounds, about 2,000 (36%) were called active. Inconclusive results (about 18%) are left out. The list shows a part of the results.
The entries below are paired with their reported normalized growth.
parameter: normalized growth

[[record]]
molecule = "CC1(C)S[C@@H]2[C@H](NC(=O)[C@H](N)c3ccccc3)C(=O)N2[C@H]1C(=O)O"
parameter = "normalized growth"
experimental_value = 0.991

[[record]]
molecule = "C[C@H]1COc2c(N3CCN(C)CC3)c(F)cc3c(=O)c(C(=O)O)cn1c23"
parameter = "normalized growth"
experimental_value = 1.02

[[record]]
molecule = "NCCCS(=O)(=O)O"
parameter = "normalized growth"
experimental_value = 0.961

[[record]]
molecule = "CCCCC[C@H]1C(=O)O[C@H](C)[C@H](NC(=O)c2cccc(NC=O)c2O)C(=O)O[C@@H](C)[C@@H]1OC(=O)CC(C)C"
parameter = "normalized growth"
experimental_value = 0.979

[[record]]
molecule = "C[C@]12CCC(=O)C=C1C=CC1C2CC[C@@]2(C)C1CC[C@@]2(O)CCC(=O)O (stereo partly specified)"
parameter = "normalized growth"
experimental_value = 0.986

[[record]]
molecule = "NS(=O)(=O)c1cc2c(cc1Cl)NC=NS2(=O)=O"
parameter = "normalized growth"
experimental_value = 0.986

[[record]]
molecule = "COc1c(N2CCNC(C)C2)c(F)cc2c(=O)c(C(=O)O)cn(C3CC3)c12 (stereo unspecified)"
parameter = "normalized growth"
experimental_value = 1.01

[[record]]
molecule = "NC(=O)c1ccc[n+]([C@@H]2O[C@H](COP(=O)([O-])OP(=O)(O)OC[C@H]3O[C@@H](n4cnc5c(N)ncnc54)[C@H](OP(=O)(O)O)[C@@H]3O)[C@@H](O)[C@H]2O)c1"
parameter = "normalized growth"
experimental_value = 1

[[record]]
molecule = "O=C(O[C@@H]1Cc2c(O)cc(O)cc2O[C@@H]1c1ccc(O)c(O)c1)c1cc(O)c(O)c(O)c1"
parameter = "normalized growth"
experimental_value = 1.03

[[record]]
molecule = "O=C(Oc1cc(O)cc2c1C[C@@H](OC(=O)c1cc(O)c(O)c(O)c1)[C@@H](c1cc(O)c(O)c(O)c1)O2)c1cc(O)c(O)c(O)c1"
parameter = "normalized growth"
experimental_value = 0.956

[[record]]
molecule = "C=C1C2CC[C@@]3(C)[C@H](c4ccoc4)OC(=O)C[C@]13O[C@H]1CC(=O)C(C)(C)[C@H](C(OC(C)=O)C(=O)OC)[C@@]21C (stereo partly specified)"
parameter = "normalized growth"
experimental_value = 1.01

[[record]]
molecule = "O=C(O[C@@H]1Cc2c(O)cc(O)cc2O[C@@H]1c1cc(O)c(O)c(O)c1)c1cc(O)c(O)c(O)c1"
parameter = "normalized growth"
experimental_value = 1.03

[[record]]
molecule = "O=C(Oc1cc(OC(=O)c2ccccc2)c2c(c1)O[C@H](c1ccc(OC(=O)c3ccccc3)c(OC(=O)c3ccccc3)c1)[C@@H](OC(=O)c1ccccc1)C2)c1ccccc1"
parameter = "normalized growth"
experimental_value = 1.06

[[record]]
molecule = "CCCCCCCCCCC[C@@H](C[C@H]1OC(=O)[C@H]1CCCCCC)OC(=O)[C@@H](CC(C)C)NC=O"
parameter = "normalized growth"
experimental_value = 1.02

[[record]]
molecule = "Nc1nc(=S)c2[nH]cnc2[nH]1"
parameter = "normalized growth"
experimental_value = 1

[[record]]
molecule = "CC[C@@H](C(=O)C(C)[C@@H](O)[C@H](C)CCc1ccc(C)c(O)c1C(=O)O)C1OC(CC)(C2CC[C@](O)(CC)[C@H](C)O2)C[C@@H]1C (stereo partly specified)"
parameter = "normalized growth"
experimental_value = 1.02

